Conditions: bacteroides eggerthii, 12 h, 2 µM;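 further: compound levels quantified by LC–MS at the start and end of incubation with the bacterium, indicating biotransformation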
Description: The drug is tested on Bacteroides eggerthii strain: DSM20697 for biotransformation. The drug concentrations were measured before and after a 12-h incubation by liquid-chromatography-coupled mass spectrometry (LC–MS)
readout label: Bacterial Biotransformation

Below, 4 molecules whose answers are already recorded.
Please indicate Bacterial Biotransformation recorded for `CN1CCc2c(c3ccccc3n2Cc2ccccc2)C1.CN1CCc2c(c3ccccc3n2Cc2ccccc2)C1.O=S(=O)(O)c1cccc2c(S(=O)(=O)O)cccc12` Compound NOT metabolized

Please indicate Bacterial Biotransformation recorded for CCCC1O[C@@H]2C[C@H]3[C@@H]4CCC5=CC(=O)C=C[C@]5(C)[C@H]4[C@@H](O)C[C@]3(C)[C@]2(C(=O)CO)O1 (some centres not stated) [BUDESONIDE] Compound metabolized

Please indicate Bacterial Biotransformation recorded for N#Cc1ccc2c(c1)N(CCCN1CCC(O)CC1)c1ccccc1S2 [PERICIAZINE] Compound NOT metabolized

Please indicate Bacterial Biotransformation recorded for O=C(NCc1ccccc1)OCCO [BURAMATE] Compound NOT metabolized

Continuing:
Please indicate Bacterial Biotransformation recorded for CN(C)C(=O)C(CCN1CCC(O)(c2ccc(Cl)cc2)CC1)(c1ccccc1)c1ccccc1 [LOPERAMIDE] Compound metabolized

Please indicate Bacterial Biotransformation recorded for N#Cc1ccc2[nH]cc(CCCCN3CCN(c4ccc5oc(C(N)=O)cc5c4)CC3)c2c1 [VILAZODONE] Compound metabolized

Please indicate Bacterial Biotransformation recorded for CN1CCN(C(=O)O[C@H]2c3nccnc3C(=O)N2c2ccc(Cl)cn2)CC1 [ESZOPICLONE] Compound NOT metabolized

Please indicate Bacterial Biotransformation recorded for C=CCc1ccccc1OCC(O)CNC(C)C (configuration not stated) [ALPRENOLOL] Compound NOT metabolized

Please indicate Bacterial Biotransformation recorded for Cc1cn([C@H]2C[C@H](N=[N+]=[N-])[C@@H](CO)O2)c(=O)[nH]c1=O [ZIDOVUDINE] Compound metabolized

Please indicate Bacterial Biotransformation recorded for COc1cc(C(=O)NCc2ccc(OCCN(C)C)cc2)cc(OC)c1OC [TRIMETHOBENZAMIDE] Compound NOT metabolized

Please indicate Bacterial Biotransformation recorded for Nc1c2c(nc3ccccc13)CCCC2 [TACRINE] Compound NOT metabolized
